System: corn leaf discs (variety Multitop)
measurement-notes: Dark induced senescence of corn leaf
recorded-conditions: Zea mays, foliar, 192 h, 100 μM-0.0001 μM, 0.5% DMSO, 23° C., 8 days, image analysis, read-out: IC50 (concentration at which 50% senescence was achieved), dark induced senescence of corn leaf
measured-attribute: IC50 (nM)

[[record]]
molecule = "CC1=C(C)C(O/C=C2/C(=O)OC3Oc4ccccc4C23)OC1=O (centres unmarked)"
target_under_test = "corn leaf discs (variety Multitop)"
measured_attribute = "IC50"
numeric_value = 15

[[record]]
molecule = "CC1=C(C)C(O/C=C2/C(=O)OC3Sc4ccccc4C23)OC1=O (centres unmarked)"
target_under_test = "corn leaf discs (variety Multitop)"
measured_attribute = "IC50"
numeric_value = 40

[[record]]
molecule = "CC1=CC(O/C=C2/C(=O)OC3Oc4ccccc4C23)OC1=O (centres unmarked)"
target_under_test = "corn leaf discs (variety Multitop)"
measured_attribute = "IC50"
numeric_value = 30


P: CC1=CC(O/C=C2/C(=O)OC3COc4ccccc4C23)OC1=O (centres unmarked)
Q: CC1=CC(O/C=C2/C(=O)OC3C2c2ccccc2[S+]3[O-])OC1=O (centres unmarked)
Select one: P or Q . Criterion: greater recorded IC50. Please respond with the label that marks your chosen entry.
P
